- MEASURED ON: ErbB-3 receptor-Ig fusion (human) (UniProt P21860)
- METHOD: phage ELISA, ratio to wild-type HRG8 phage
READOUT NAME: EC50(wt)/EC50(mut)
Numbers only.

Lab note: each binder below needs its EC50(wt)/EC50(mut) filled in.
1. A2 (phage) (ligand) WSLQPCAEKEKTFCVNGGECFMVKDLSNPSRYLCKCPNEFTGDRCQNYVMAS
2. SHLVKCGEEREGFCVNGGECYRVKTYGYLMCKCPNEFTGDRCQNYVIAS (ligand) [HRG62 (phage)]

Response given:
0.87
32

Would you mind giving EC50(wt)/EC50(mut) for every binder in the list below?
1. D10 (phage) (ligand) SHLVKCAEKEKTFCVNGGECYMVKTLSNPSRYLCKCPNEFTGDRCQNYVMAS
2. B3 (phage) (ligand) SHLVKCGEEREGFCVNGGECFMVKDLSNPSRYLCKCPNEFTGDRCQNYVMAS
3. HRG59 (phage) (ligand) SHLVKCAEKEKTFCVNGGECYRVKTLSNPSRYLCKCPNEFTGDRCQNYVIAS
4. SHLVKCAEKEKTFCVNGGECFMVKDPSRYLCKCPNEFTGDRCQNYVMAS (ligand) [HRG63 (phage)]
5. B10 (phage) (ligand) SHLVKCDKSREGFCVNGGECFMVKDLSNPSRYLCKCPNEFTGDRCQNYVIAS

Response given:
2.1
4.7
26
1.1
9.3

Quick one: give me EC50(wt)/EC50(mut) for each item below, same order please.
1. SHLVKCAEKEKTFCVNGGECFMVKDYGYLMCKCPNEFTGDRCQNYVIAS (ligand) [HRG48 (phage)]
2. A1 (phage) (ligand) WRLVPCAEKEKTFCVNGGECFMVKDLSNPSRYLCKCPNEFTGDRCQNYVMAS

Response given:
1: 49; 2: 0.55
